Let's look at some compounds and their measured growth.
- System: M14 melanoma
- assayInfo: NCI-60 one-dose screen, 48 h (100 = growth as untreated, 0 = no growth, -100 = all killed)
- conditionInfo: 10 µM unless noted
This is part of a sample that, as a whole, favours compounds with a hit. Of some 83,000 tested, about 20% had one in any assay. Active and inactive are the calls of the source. The calls were made as follows: active = growth percent below 10; inactive = the rest.
quantityMeasured: growth

                                    compound            result
 0                     Cc1ccccc1NC(=O)CN(C)C   104% (inactive)
 1  CCn1c(Sc2nnc(NC(=O)CCN3CCCC3)s2)nc2c1c(=O)n(C)c(=O)n2C   107% (inactive)
 2         c1ccc(-c2oc3ccccc3c2-c2ccccc2)cc1   102% (inactive)
 3  CC(C)CCC[C@@H](C)[C@H]1CCC2C3=CCn4c(=O)ccc(=O)n4C3CC[C@@]21C (some centres not stated)     -98% (active)
 4   Cc1cc(-c2ccc(N(C)C)cc2)c2sc(=O)[nH]c2n1  44.5% (inactive)
 5  COc1ccc(-c2cc(-c3cc(OC)ccc3OC)[nH]c(=O)c2C#N)cc1  29.1% (inactive)
 6  COC(=O)c1ccc2oc(NC(=O)c3ccc(N4CCOCC4)c([N+](=O)[O-])c3)nc2c1  98.8% (inactive)
 7  CC(C)n1nc(C#Cc2cccc(NC(=O)c3cccc(C(F)(F)F)c3)c2)c2c(N)ncnc21     -44% (active)
 8     COC(=O)c1ccc(CSc2nnc(-c3ccncc3)o2)cc1   102% (inactive)
 9  COc1ccc(-n2ncn(CCCCCCn3cnn(-c4ccc(OC)cc4)c3=O)c2=O)cc1  97.5% (inactive)
10          CC(=O)Nc1ccc2c(c1)Cc1c(F)cccc1-2   119% (inactive)
11        CN1CCC(=C2c3ccccc3C=Cc3ccccc32)CC1  91.7% (inactive)
12  CS(=O)(=O)c1ccc(-c2[nH]c3ccc(F)cc3c2/C=N/NC(N)=S)cc1  11.6% (inactive)
13  O=C(/C=C/C12c3ccccc3C(c3ccccc31)C1C(=O)NC(=O)C12)c1ccc(Cl)cc1 (configuration not stated)    8.03% (active)
14  CNC(=O)c1cc(Oc2ccc3nc(NC(=O)Nc4cc(C(F)(F)F)cc(C(F)(F)F)c4)sc3c2)ccn1     -39% (active)
15  CC(=O)Nc1cccc(C2=CC(c3ccc(C)cc3)n3ncnc3N2)c1 (configuration not stated)   112% (inactive)
16              CSc1ncc(C)c(Nc2ccc(Cl)cc2)n1   112% (inactive)
17  COc1ccc(O)c(-c2cc(-c3ccccc3)c(C#N)c(=O)[nH]2)c1  94.9% (inactive)
18  COc1ccc(-c2nnc(SCC(=O)NC3=NN=C(c4ccccc4)CS3)o2)cc1  95.5% (inactive)
19  Cc1nc2ccc(C(=O)NCc3cc(C(=O)O)c(C)o3)cc2nc1C  91.4% (inactive)
20  COc1cc(C2CC(=O)Nc3n[nH]c(-c4ccccc4)c32)cc(OC)c1OC (configuration not stated)  53.3% (inactive)
21       CCN(CC)CC(=O)Nc1cccc(C(=O)OC(C)C)c1  79.6% (inactive)

###

Let's look at some molecules and their measured growth.
- Test system: OVCAR-5 ovarian
- assayInfo: NCI-60 one-dose screen, 48 h (100 = growth as untreated, 0 = no growth, -100 = all killed)
- conditionInfo: 10 µM unless noted
Compounds without any hit were thinned out: in the full panel of roughly 83,000, 20% have a hit.
quantityMeasured: growth (%)

                                   molecule  unittag  number
0  COc1cc2ccccc2cc1C(=O)NC(=S)Nc1ccc(-c2nc3ccccc3[nH]2)cc1        %     103
1  COc1ccc(C(=O)/C=C/c2cc3c(c(OC)c2)OCC(=O)N3)cc1        %    45.7
2  COc1ccc(/C(C)=N/NS(=O)(=O)c2ccc(C)cc2)cc1OC        %     109
3         c1ccc(-c2oc3ccccc3c2-c2ccccc2)cc1        %     105
4  COc1ccc(-c2cc(-c3cc(OC)ccc3OC)[nH]c(=O)c2C#N)cc1        %     116
5  Cc1cc(Cl)nc(N(CCCNc2ccnc3cc(Cl)ccc23)Cc2ccccn2)n1        %      56
6  CCCCOc1nc2ccc(Cl)cc2cc1/C=C/C(=O)/C=C1/CC(c2cc3cc(Cl)ccc3nc2OCCCC)Nc2ccccc2N1 (stereo not given)        %    93.8
7  CCNCCNc1cc(-c2ccc(C(=O)OC)cc2)c(C#N)c2nc3ccccc3n12        %     102
8                     CC(=O)c1ccc2c(c1)CCN2        %     101
9  COc1ccc(OC)c(Nc2nc3nonc3nc2Nc2cc(OC)ccc2OC)c1        %    92.3

###

- System: NCI/ADR-RES ovarian
- assayInfo: NCI-60 one-dose screen, 48 h (100 = growth as untreated, 0 = no growth, -100 = all killed)
- conditionInfo: 10 µM unless noted
The panel holds about 83,000 compounds, 20% with a hit somewhere; the sample as a whole holds those more often.
Let's look at some compounds and their measured growth.
quantityMeasured: growth (%)

>>> print(df.to_string())
                                   compound  number
0  OC(COc1cccc2ccccc12)CN1CCN(c2ccccc2)CC1 (stereo unspecified)      98
1  Cc1cc(Cl)nc(N(CCCNc2ccnc3cc(Cl)ccc23)Cc2ccccn2)n1    32.2
2  COc1cc2c(O)n(CCCn3ccnc3)c3c4cnc5cccc(c(=O)c3c2cc1OC)c54    98.3
3     COc1ccc(/C=C2\COc3ccc(O)cc3C2=O)cc1OC    98.4
4  Cl.[Pt].[c-]1ccccc1-c1ccccn1.c1ccc(P(c2ccccc2)C([PH+](c2ccccc2)c2ccccc2)[PH+](c2ccccc2)c2ccccc2)cc1    60.7
5   CCNCCNc1cc(C2CCCC2)c(C#N)c2nc3ccccc3n12    33.1

###

- System: IGROV1 ovarian
- assayInfo: NCI-60 one-dose screen, 48 h
- conditionInfo: 10 µM unless noted
The panel holds about 83,000 compounds, 20% with a hit somewhere; the sample as a whole holds those more often. The source made the active and inactive calls. How the source made its calls: active means growth percent below 10; inactive means the rest.
Outcome codes: label 1 for active, label 0 for inactive

compound	labelValue
C[C@@H]1C(=O)N(C[C@H](Cc2ccccc2)NC(=O)OCc2ccccc2)[C@]1(Cc1ccccc1)C(=O)OC(C)(C)C	label 0
CCCCN1CCN(c2ccc3nc(-c4ccc5nc(-c6ccc(OCC)c(OCC)c6)[nH]c5c4)[nH]c3c2)CC1	label 0
Cc1cc(N2CCCCC2)nc(N(CCNc2ccnc3cc(Cl)ccc23)Cc2ccccn2)n1	label 0
COC1(CC[C@@H](C)COC2OC(CO)C(O)C(O)C2O)O[C@H]2C[C@H]3[C@@H]4CC=C5C[C@@H](OC6OC(CO)C(OC7OC(C)C(O)C(O)C7O)C(O)C6OC6OC(C)C(O)C(O)C6O)CC[C@]5(C)[C@H]4CC[C@]3(C)[C@H]2[C@@H]1C (some centres undefined)	label 1

###

- Tested on: MCF7 breast
- assayInfo: NCI-60 one-dose screen, 48 h
- conditionInfo: 10 µM unless noted
This is part of a sample that, as a whole, favours compounds with a hit. Of some 83,000 tested, about 20% had one in any assay. Activity calls are given as the source filed them. The calls were made as follows: active = growth percent below 10; inactive = the rest.
Outcome codes: class 1 (active), class 0 (inactive)

compound	labelValue
O=C1NN(C(=O)c2ccc(O)cc2)C(c2ccccc2)=N/C1=C\c1cn(-c2ccccc2)nc1-c1ccccc1	class 0
CCn1nc(C#Cc2c(C)ccc3c(Nc4ccc(Cl)cc4)nccc23)c2c(N)ncnc21	class 1
CC1(C)C(=O)/C(=C\c2cccnc2)C[C@]2(C)[C@H]3CC=C4[C@@H]5C[C@@](C)(C(=O)O)CC[C@]5(C)CC[C@@]4(C)[C@]3(C)CC[C@@H]12	class 0
COc1cccc(-c2cnco2)c1OCc1c(C)c(COc2c(OC)cccc2-c2cnco2)c(C)c(COc2c(OC)cccc2-c2cnco2)c1C	class 0
Clc1cnc(Nc2ccc(OCCN3CCCC3)cc2)nc1NCc1ccco1	class 1
Cc1ccc(Nc2ccc(Nc3ccc(C)cc3S(=O)(=O)O)c3c2C(=O)c2ccccc2C3=O)c(S(=O)(=O)O)c1	class 0
C=C1C(=O)O[C@H]2[C@H]1CC/C(Cn1cc(CNCCc3c[nH]c4ccc(Cl)cc34)nn1)=C\CC[C@@]1(C)O[C@@H]21	class 0
CCCCN1CCN(c2ccc3nc(-c4ccc5nc(-c6ccc(OCC)c(OCC)c6)[nH]c5c4)[nH]c3c2)CC1	class 1
CC(=O)Nc1ccc2c(c1)Cc1c(F)cccc1-2	class 0
Nc1c(-c2nc3ccccc3c(=O)[nH]2)nnn1-c1ccc(Cl)cc1	class 0
Nc1nc(N)c(-c2ccc(Cl)cc2)c(/C=C/c2ccc([N+](=O)[O-])cc2)n1	class 0
COC1(CC[C@@H](C)COC2OC(CO)C(O)C(O)C2O)O[C@H]2C[C@H]3[C@@H]4CC=C5C[C@@H](OC6OC(CO)C(OC7OC(C)C(O)C(O)C7O)C(O)C6OC6OC(C)C(O)C(O)C6O)CC[C@]5(C)[C@H]4CC[C@]3(C)[C@H]2[C@@H]1C (stereo partly specified)	class 1
CC1(C)N=C(N)N=C(N)N1c1cccc(CN)c1	class 0
O=C1CSC(c2ccccc2O)N1c1nnc(Cn2cnnc2)o1 (stereo unspecified)	class 0
COc1ccc(/C=C(\C#N)n2nnc3ccccc32)cc1	class 1
C[C@@H]1CC[C@@H]2[C@@H]1[C@H](OC(=O)c1ccc3ccccc3c1)[C@]1(C3CCCCC3)C[C@@H](OC(=O)CO)[C@@]2(C)O1	class 0
N[C@@H]1CCC[C@H]1NCCCCN1C(=O)c2cccc3cccc(c23)C1=O	class 0
O=C1c2cccc3c(-c4ccc(-c5nc6c7ccccc7c7ccccc7c6[nH]5)cc4)ccc(c23)C(=O)N1CCN1CCNCC1	class 1
Clc1ccc(-c2nnc(-c3ccco3)o2)cc1	class 0
NC(N)=N/N=C(/c1ccccc1)c1ccc(N)cc1	class 0
CC(C)c1ccc(NC(=O)Cc2ccc(Nc3ncnc4cc(-c5cnn(CCN(C)C)c5)ccc34)cc2)cc1	class 1
C/C(=N\NC(=O)Cn1c(-c2ccc(S(C)(=O)=O)cc2)nc2cc(Cl)ccc21)c1ccc(Cl)cc1	class 0
N#Cc1c(Oc2ccc([N+](=O)[O-])cc2)nc2sc3cc(Cl)ccc3n2c1=N	class 0
CC(C)CCC[C@@H](C)[C@H]1CCC2C3=CCC4C(=O)C=CC(=O)C4C3CC[C@@]21C (stereo partly specified)	class 1
O=C(/C=C/C12c3ccccc3C(c3ccccc31)C1C(=O)N(c3ccc(Cl)cc3)C(=O)C12)c1ccccn1 (stereo unspecified)	class 1
CCN(CCO)CC(=O)c1cc(Cl)cc(Cl)c1Cl	class 0
CC(C)(C)c1ccc(C(=O)Nc2sc3c(c2C(N)=O)CCC(=O)C3)cc1	class 1
C[C@@H]1C(=O)N(C[C@H](Cc2ccccc2)NC(=O)OCc2ccccc2)[C@]1(Cc1ccccc1)C(=O)OC(C)(C)C	class 0
Fc1ccc(Nc2nc3nonc3nc2Nc2ccc(F)cc2)cc1	class 1
Oc1[nH]c2ccccc2c1/C=c1/cc2c(c(-c3ccc(F)cc3)n1)=Nc1ccccc1-2	class 1
COc1ccc(OC)c(Nc2nc3nonc3nc2Nc2cc(OC)ccc2OC)c1	class 0
CCC(O)(C(c1ccccc1)c1ccccn1)C(c1ccccc1)c1ccccn1 (stereo unspecified)	class 0
CCCCNC(=O)NS(=O)(=O)c1ccc(N2N=C(c3ccc(C)cc3C)CC2c2ccc(N(C)C)cc2)cc1 (stereo unspecified)	class 0
Clc1ccc2[nH]c3c(NCCCN4CCOCC4)ncnc3c2c1	class 0
C=CCOc1cccc(/C=C2\SC(=Nc3ccc(O)cc3)NC2=O)c1	class 1
Cc1ccc(O)c(C(=O)c2ccccc2Cl)c1	class 0
